Assay: Tissue distribution test (plasma, liver, kidney, lung)
Conditions: ICR, mouse, in vivo, iv, 5 mg/kg, Liver Kp, liver/plasma concentration ratio, ICR mice, 0.5 hour
VALUE_KIND: Kp at 0.5 h
// print number alone

Qu. I would be grateful if you could share the reported Kp at 0.5 h for CCCCCCCCCCNCCN[C@@]1(C)C[C@H](O[C@H]2[C@H](Oc3c4cc5cc3Oc3ccc(cc3Cl)[C@@H](O)[C@@H]3NC(=O)[C@H](NC(=O)[C@@H]5NC(=O)[C@H](CC(N)=O)NC(=O)C(NC(=O)[C@@H](CC(C)C)NC)[C@H](O)c5ccc(c(Cl)c5)O4)c4ccc(O)c(c4)-c4c(cc(O)c(CNCP(=O)(O)O)c4O)[C@@H](C(=O)O)NC3=O)O[C@H](CO)[C@@H](O)[C@@H]2O)O[C@@H](C)[C@H]1O (stereo partly shown) .
Ans. 0.21
